Origin of values: patent US10981932B2

- systemName: MCL-1 (Homo sapiens)
- Sequence (Q07820 whole entry): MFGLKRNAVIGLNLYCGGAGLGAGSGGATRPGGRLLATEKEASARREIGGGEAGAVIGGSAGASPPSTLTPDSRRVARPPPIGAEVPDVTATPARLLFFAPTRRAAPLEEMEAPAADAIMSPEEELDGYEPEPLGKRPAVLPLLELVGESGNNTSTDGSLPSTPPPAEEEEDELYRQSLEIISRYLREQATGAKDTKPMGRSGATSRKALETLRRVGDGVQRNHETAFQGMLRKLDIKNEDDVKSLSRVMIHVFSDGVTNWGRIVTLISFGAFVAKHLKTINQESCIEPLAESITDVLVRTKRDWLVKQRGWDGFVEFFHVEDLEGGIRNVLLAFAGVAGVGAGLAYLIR
- assayProtocol: Protein-protein interaction assay MCL-1/Noxa BH3 peptide (MCL-1 assay), TR-FRET
- Assay type: binding
- conditions: MBP-MCL-1 / Noxa BH3-derived peptide, median
- Method: Protein-Protein Interaction Assay: MCL-1/Noxa BH3 Peptide (MCL-1 Assay) […] In the assay 11 different concentrations of each compound (0.1 nM, 0.33 nM, 1.1 nM, 3.8 nM, 13 nM, 44 nM, 0.15 μM, 0.51 μM, 1.7 μM, 5.9 μM and 20 μM) were typically measured as duplicates in the same microtiter plate. For that, 100-fold concentrated DMSO solutions were prepared by serial dilutions (1:3.4) of a 2 mM stock solution in a clear, 384-well microtiter plate (Greiner Bio-One, Frickenhausen, Germany). […]
propertyName: IC50 (nM)

Some molecules with known IC50 results, for comparison:
Cn1nc2c(c1CN1CCOCC1)-c1cccc3c(CCCOc4cccc5ccccc45)c(C(=O)O)n(c13)C/C=C\COC2 (racemic) [Example 066]: 28.5
CCc1nn(C)c2c1-c1c(C)ccc3c(C(C)CCOc4cccc5cc(F)ccc45)c(C(=O)O)n(c13)CCCCOC2 (single isomer, unassigned) [Example 262]: 38.8
Cc1ccc2c(OCCCc3c(C(=O)O)n4c5c(cccc35)-c3c(nn(C)c3C)COCCCC4)cccc2c1 (single isomer, unassigned; enantiomer 1) [Example 308]: 5.07

I. CCS(=O)(=O)N1CCN(c2ccc(N3CCCn4c(C(=O)O)c(CCCOc5cccc6ccccc56)c5cccc(c54)-c4c(C)nn(C)c4C3)cc2)CC1 (single isomer, unassigned; enantiomer 2) [Example 1-110]
II. CN1CCCn2c(C(=O)O)c(CCCOc3cccc4ccccc34)c3cccc(c32)-c2c(CCN3CCOCC3)nn(C)c2C1 (single isomer, unassigned; enantiomer 2) [Example 126]
III. Cn1nc2c(c1C(F)(F)F)-c1cccc3c(CCCOc4cccc5ccccc45)c(C(=O)O)n(c13)CCCCOC2 (racemic) [Example 186]
In: Kindly order the items shown according to IC50, from the highest value down. Answer format: the labels, in the requested order.
Out: II, I, III
(II: 84.5 nM, I: 58.1 nM, III: 15.7 nM)

* * *

- Tested on: SUDHL5
- assayProtocol: Anti-proliferative effect (CellTiter-Glo, 72 h), SUDHL5
- Assay type: cell-based
- conditions: Homo sapiens, SU-DHL-5, 72 h, SUDHL5 cells, antiproliferation, 72 h incubation, median, read-out: Antiproli SUDHL5 [M] (median)
propertyName: IC50 (M)

// worked examples, IC50 included
Cn1nc(COc2ccccc2)c2c1COCC=CCn1c(C(=O)O)c(CCCOc3cccc4ccccc34)c3cccc-2c31 (racemic) [Example 1-76]: 2.1e-05
Cc1nn(CC(F)(F)F)c2c1-c1cccc3c(CCCOc4cccc5ccccc45)c(C(=O)O)n(c13)CCCCOC2 (racemic) [Example 109]: 1.56e-05
CCCc1nn(C)c2c1-c1c(C)ccc3c(CCCOc4cccc5ccccc45)c(C(=O)O)n(c13)CCCCOC2 (racemic) [Example 187]: 7.27e-06
COCCn1nc2c(c1C)-c1cccc3c(CCCOc4cccc5ccccc45)c(C(=O)O)n(c13)CCCN(C)C2 (racemic) [Example 052]: 2.15e-06
O=C(O)c1c(CCCOc2cccc3ccccc23)c2cccc3c2n1CCCCOCc1nn2c(c1-3)CCCC2 (racemic) [Example 253]: 5.74e-06
Cc1nn(C)c2c1-c1cccc3c(CCCOc4cccc5ccccc45)c(C(=O)O)n(c13)CCCN(c1ccccc1)C2 (racemic) [Example 1-97]: 1.18e-05

1. CN1CCCn2c(C(=O)O)c(CCCOc3cccc4ccccc34)c3cccc(c32)-c2c(COc3ccccc3)nn(C)c2C1 (single isomer, unassigned) [Example 1-82]
2. Cc1ccc2c(C(C)CCOc3cccc4ccccc34)c(C(=O)O)n3c2c1-c1c(C)nn(C)c1COCCCC3 (racemic) [Example 256]
In: Of 1 and 2 , whose reported IC50 is numerically smaller? Answer by stating the label of the chosen item.
Out: 2
(2: 1.5e-05 M, 1: 2.77e-05 M)

I. Cn1nc(COc2ccc(C3(O)CCOCC3)cc2)c2c1COCCCCn1c(C(=O)O)c(CCCOc3cccc4ccccc34)c3cccc-2c31 (racemic) [Example 1-61]
II. CCc1nn(C)c2c1-c1c(C)ccc3c(CCCOc4cccc5cc(F)ccc45)c(C(=O)O)n(c13)CCCCOC2 (racemic) [Example 266]
III. Cc1c2c(nn1C)CCCCCCn1c(C(=O)O)c(CCCOc3cccc4ccccc34)c3cccc-2c31 (racemic) [Example 190]
IV. Cc1ccc2c(CCCOc3cccc4ccccc34)c(C(=O)O)n3c2c1-c1c(C)nn(C)c1COCC=CC3 (racemic) [Example 038]
In: Would you mind ranking these compounds by ascending IC50? Please express your ranking as an ordered list of the labels.
Out: II, III, I, IV
(II: 9.96e-07 M, III: 2.35e-06 M, I: 5.41e-06 M, IV: 1.64e-05 M)
